Run Description: yeast growth modulation, basal conditions, primary screen, YJM789 clinical isolate, OD600, 24 h (AID 1089);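 note: growth of clinical yeast isolate S. cerevisiae YJM 789 seeded 1000 cells per well; test concentration not given here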
Test Parameters: S. cerevisiae YJM789 growth, higher = more signal, called active from +8 up or from −8 down

Molecule	z-score
CCCCC(=C=CC[C@H](O)c1ccc(OCCO)cc1)C[C@H](O)c1cc(Cl)cc(Cl)c1O	0.294
C=CCC(OC(C)=O)[C@@H]1[C@@H](N(Cc2cc3ccccc3o2)C(=O)c2ccc(-c3ccccc3)cc2)c2cc(OCCCO)ccc2N1C(=O)Cc1ccc(OC)cc1 (some centres undefined)	0.21
C=CCNC(=O)[C@H]1[C@@H]2C(=O)O[C@@H](c3ccccc3)[C@@H](c3ccccc3)N2[C@@H](c2ccc(OCCO)cc2)[C@]12C(=O)N(C(=O)OCCOC)c1ccc(C#Cc3ccc(OC)cc3)cc12	1.2
C=CCNC(=O)[C@@H]1[C@H]2C(=O)O[C@H](c3ccccc3)[C@H](c3ccccc3)N2[C@H](c2ccc(O)cc2)[C@@]12C(=O)Nc1ccc(C#CCC(C(=O)OC)C(=O)OC)cc12	1.66
C=C(COC)C(=O)CC[C@H](OC(C)=O)c1ccc(OCCO)cc1	0.389
C=C(CCCC)C(=O)CC[C@H](OC(C)=O)c1ccc(OCCO)cc1	-1.62
O=C1C2C=CC(C(O)C=Cc3ccc([N+](=O)[O-])cc3)N(Nc3ccccc3)C2C(=O)N1c1ccccc1 (centres undefined)	0.431
CCCCC(=C=CC[C@H](O)c1ccc(OCCO)cc1)C[C@H](O)COCc1ccccc1	0.85
COCCOC(=O)N1C(=O)[C@@]2(c3cc(C#CC4=CCCCC4)ccc31)[C@H](c1ccc(O)cc1)N1[C@H](c3ccccc3)[C@H](c3ccccc3)OC(=O)[C@H]1[C@@H]2C(=O)NC[C@H](O)c1ccccc1	1.44
CCOC(=O)C[C@H]1[C@H](OC(=O)c2ccc(-c3ccccc3)cc2)[C@@H](NC(=O)CC(C)C)c2cc(OCCCO)ccc2N1C(=O)c1ccccc1	0.72
[N-]=[N+]=NC[C@H](Cc1ccccc1)NC(=O)c1ccccc1	-1.02
C=CCC(OC(C)=O)[C@@H]1[C@@H](N(Cc2ccc(-c3ccccc3)cc2)C(=O)c2ccc(C)cc2)c2cc(OCCCO)ccc2N1C(=O)Cc1ccc2ccccc2c1 (some centres undefined)	-2.04
O=C1OCCC=C[C@H]2OC34C=CCN(c5ccc(Cl)cc5)C(=O)[C@H]3N(CCCCCCO)C(=O)[C@@H]4C12 (some centres undefined)	0.115
CN1C(=O)[C@@H]2[C@@H](CC(COc3ccccc3)=C([C@H](O)CCc3ccccc3)[C@@H]2CO)C1=O	0.0937
C=C[C@H](C)[C@H](OC(=O)Nc1ccc(OC)cc1)c1ccc(OCCO)cc1	0.164
COc1ccc([Si](C)(C)[C@@H]2[C@@H](CCn3cc([C@H](O)c4ccccc4)nn3)O[C@]3(C(=O)N(Cc4cccc(N5C(=O)c6cccc7cccc5c67)c4)c4ccccc43)[C@H]2C)cc1	0.738
Cc1nc2cc(Br)ccc2c(=O)n1Cc1cccc(O)c1	0.104
COCCOC(=O)N1C(=O)[C@@]2(c3cc(C#Cc4ccc(OC)cc4)ccc31)[C@H](c1ccc(OCCO)cc1)N1[C@H](c3ccccc3)[C@H](c3ccccc3)OC(=O)[C@H]1[C@@H]2C(=O)Nc1nc2ccccc2s1	1.77
[N-]=[N+]=NCc1ccccc1[C@@H]1OC(c2ccc(OCCCO)cc2)=N[C@]1(Cc1ccccc1N=[N+]=[N-])C(=O)N1CCCCC1	-0.0524
COC(=O)c1c2oc(c1C(=O)OC)C(=O)N1CCC[C@H]1Cn1nncc1CN(Cc1ccccc1)C(=O)N[C@H](CO)CC2	0.955
O=C1C2C=CC(C(O)c3ccc(I)cc3)N(Nc3ccccc3)C2C(=O)N1c1ccccc1 (centres undefined)	-0.165
CCOC(=O)C[C@H]1[C@H](OC(=O)c2cc3ccccc3oc2=O)[C@@H](NC(=O)c2ccc3ccccc3c2)c2cc(OCCCO)ccc2N1C(=O)Cc1ccc(OC)cc1	0.173
CCOC(=O)C1=CC[C@@H](c2ccccc2)N(S(=O)(=O)c2ccc(C)cc2)[C@H]1c1cccc(OC)c1	0.498
O=C1C2C=CC(C(O)c3ccco3)N(Nc3ccccc3)C2C(=O)N1c1ccccc1 (centres undefined)	0.928
CC(C)=CCCC(C)=CC(O)C1C=CC2C(=O)N(c3ccccc3)C(=O)C2N1Nc1ccccc1F (centres undefined)	-1.23
C=CCNC(=O)[C@@H]1[C@H]2C(=O)O[C@H](c3ccccc3)[C@H](c3ccccc3)N2[C@H](c2ccc(O)cc2)[C@@]12C(=O)N(C(=O)OCCOC)c1ccc(C#CCCO)cc12	0.434
C=CC1c2cc(O)c(OC)cc2CCN1Cc1ccc([N+](=O)[O-])o1 (centres undefined)	0.994
CN(C)C(=O)[C@@]1(Cc2ccccc2N=[N+]=[N-])N=C(c2ccc(OCCCO)cc2)O[C@H]1c1ccccc1	0.687
C=C[C@@H](C)[C@@H](OC(=O)Nc1ccc(SC)cc1)c1ccc(OCCO)cc1	0.222
